Would you mind telling me the reported IC50 of each entry?
molecular target: T1, human cloned SST-R2 (human, UniProt P30874 1-369); test: inhibition of 125I-Tyr11-SRIF-14 binding to membranes of CHO cells expressing cloned human SST-R2
T1 construct: whole, on cells; Assayed as membrane preparations of CHO cells expressing the cloned receptor, not as intact cells; also called hSST-R2; human SST-R2
T1 sequence (P30874 whole entry): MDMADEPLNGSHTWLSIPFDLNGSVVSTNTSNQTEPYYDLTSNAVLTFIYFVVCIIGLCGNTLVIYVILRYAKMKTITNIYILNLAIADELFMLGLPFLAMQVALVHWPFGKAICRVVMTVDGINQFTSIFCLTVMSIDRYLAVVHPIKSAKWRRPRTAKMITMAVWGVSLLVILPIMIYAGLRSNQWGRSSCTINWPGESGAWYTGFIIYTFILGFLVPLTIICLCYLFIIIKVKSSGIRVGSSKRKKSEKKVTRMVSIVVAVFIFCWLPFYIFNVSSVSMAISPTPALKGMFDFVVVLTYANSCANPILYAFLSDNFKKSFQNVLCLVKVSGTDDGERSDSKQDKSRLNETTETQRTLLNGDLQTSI
*1 amine or outer side, *2 acyl side, *3 side chain or, on linkers, in order; H or OH if unused. Where no end group is shown, it is not given here. [ ]: non-standard residue; d: D form. ReO = oxorhenium(V), one metal core binding both hemi-chelators, from trichlorooxobis(triphenylphosphine)rhenium(V); GlyN3 = N-(3-aminopropyl)glycine amide, Cys acylated on the omega-amine, NC(=O)CN(CCCN[*:3])[*:1]; N(2-Aminoethyl)Gly = O=C(CN(CCN[*:3])[*:1])[*:2]

Examples from the recorded data:
CFWWKTFG (not fully specified; D-Cys at 1; D-Trp at 4; GlyN3 building unit at 8 with D-Cys on its omega-amine; C-terminal amide; ReO (oxorhenium(V)) chelated by the two Cys closes the ring) [ReO-GF-32]; 14 nM
CFW[dW]KTF[GlyN3](dC)-NH2 (bridge (positions not given here) via ReO; not fully specified (bridges); also: N2S2 oxorhenium(V) chelate via the two Cys) [ReO-GF-30]; 13 nM
CFWWKTFG (not fully specified; D-Cys at 1; D-Trp at 4; GlyN6 building unit at 8 with L-Cys on its omega-amine; C-terminal amide; ReO (oxorhenium(V)) chelated by the two Cys closes the ring) [ReO-GF-15]; > 10 nM

For each listed entry, give its IC50.
1. CXFWWKTFG (L-Cys at 1; beta-Ala at 2 (written X); D-Trp at 5; GlyN3 building unit at 9 with D-Cys on its omega-amine; C-terminal amide; ReO (oxorhenium(V)) chelated by the two Cys closes the ring) [ReO-GF-22]
2. CFW[dW]KTF[N(2-Aminoethyl)Gly](Cys)-NH2 (bridge (positions not given here) via ReO; not fully specified (bridges); also: N2S2 oxorhenium(V) chelate via the two Cys) [ReO-GF-45]

1: 11 nM; 2: > 10 nM
